# experiment summary: GC-MS headspace release profile of Tropical Fruit perfume in shampoo, 1/100 dilution in water
# Format: physicochemical
# condition details: headspace at 50 seconds
Label Criterion met when GC Abundance is at or above 5000; otherwise label Criterion not met.

* CC(=O)C=CC1=C(C)CCCC1(C)C | Criterion met
* OCc1ccccc1 | Criterion not met
* CC1OC(C)C2Cc3ccccc3C2O1 (stereo not shown) | Criterion not met
* C=CC(C)(O)CCC=C(C)C (stereo not shown) | Criterion met
* C=C(C)[C@H]1CC=C(C)CC1 | Criterion not met
* CC(=O)OC(C)(C)C1CC=C(C)CC1 (stereo not shown) [TERPINYL ACETATE] | Criterion met
* CC(=O)OC1CCC(C(C)(C)C)CC1 (stereo not shown) | Criterion met
* CC(C)c1cccc(C(C)CC=O)c1 (stereo not shown) [FLORHYDRAL] | Criterion met
* CCCCCC1C(=O)CCC1CC(=O)OC (stereo not shown) | Criterion not met
* CC(=O)OCc1ccccc1 [BENZYL ACETATE] | Criterion met
* C=CC(C)(O)CCC=C(C)CC (mixture of isomers) | Criterion met
* CC(C)=CCCC(C)CCO (stereo not shown) | Criterion met
* CC1=CCC(CCC(C)C(C)O)C1(C)C (stereo not shown) | Criterion not met
* CC(=O)OC(C)(C)Cc1ccccc1 [DIMETHYL BENZYL CARBINYL ACETATE] | Criterion met
